- TARGET OR SYSTEM: Receptor tyrosine-protein kinase erbB-2 (Homo sapiens)
- PROCEDURE DETAILS: reducers of endogenous Her2 protein level, primary screen, SKBR3 breast tumor cells, AlphaScreen, ATP viability (AID 461);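 note: lower value means less Her2 protein in the cells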
- MEASUREMENT CONDITIONS: 18-24 h, at 10 µM, active compounds read low

MOLECULE: C=CCn1c(SCC(=O)c2ccc(OC)cc2)nnc1C(C)NC(=O)c1cccs1 (stereo unspecified)
TARGET OR SYSTEM: Receptor tyrosine-protein kinase erbB-2 (Homo sapiens)
Her2 level / %: 88.5

MOLECULE: N[C@@H](Cc1cc(I)c(Oc2ccc(O)c(I)c2)c(I)c1)C(=O)O
TARGET OR SYSTEM: Receptor tyrosine-protein kinase erbB-2 (Homo sapiens)
Her2 level / %: 87

MOLECULE: COc1cc(OC)c(NC(=O)c2ccco2)cc1Cl
TARGET OR SYSTEM: Receptor tyrosine-protein kinase erbB-2 (Homo sapiens)
Her2 level / %: 81.5

MOLECULE: COC(=O)c1sc(S(=O)(=O)NCc2cccs2)c(C(=O)OC)c1C
TARGET OR SYSTEM: Receptor tyrosine-protein kinase erbB-2 (Homo sapiens)
Her2 level / %: 93

MOLECULE: CCN(CC)CCN1C(=O)C(=O)/C(=C(/O)c2c(C)[nH]c(C(=O)OC)c2C)C1c1ccco1 (stereo unspecified)
TARGET OR SYSTEM: Receptor tyrosine-protein kinase erbB-2 (Homo sapiens)
Her2 level / %: 105

MOLECULE: Nc1nc(CSCc2ccccc2)nc(N2CCOCC2)n1
TARGET OR SYSTEM: Receptor tyrosine-protein kinase erbB-2 (Homo sapiens)
Her2 level / %: 93.5

MOLECULE: O=C(C1CCC(N2C(=O)C3CC=CCC3C2=O)CC1)N1CCCCC1 (stereo unspecified)
TARGET OR SYSTEM: Receptor tyrosine-protein kinase erbB-2 (Homo sapiens)
Her2 level / %: 113

MOLECULE: COc1ccc(CN2CC(C(=O)NCCCOC(C)C)CC2=O)cc1 (stereo unspecified)
TARGET OR SYSTEM: Receptor tyrosine-protein kinase erbB-2 (Homo sapiens)
Her2 level / %: 90.5

MOLECULE: COc1ccc(C2N(C(=O)c3ccccc3)CCN2C(=O)c2ccccc2)cc1
TARGET OR SYSTEM: Receptor tyrosine-protein kinase erbB-2 (Homo sapiens)
Her2 level / %: 103

MOLECULE: CC(C)[C@H](NC(=O)OC(C)(C)C)c1nnc(SCC(=O)Nc2ccc(Br)cc2)o1
TARGET OR SYSTEM: Receptor tyrosine-protein kinase erbB-2 (Homo sapiens)
Her2 level / %: 108

MOLECULE: CCN(CC)S(=O)(=O)c1ccc(Br)c(OC)c1
TARGET OR SYSTEM: Receptor tyrosine-protein kinase erbB-2 (Homo sapiens)
Her2 level / %: 84

MOLECULE: CC1(C)S[C@@H]2[C@H](NC(=O)Cc3ccccc3)C(=O)N2[C@H]1C(=O)O
TARGET OR SYSTEM: Receptor tyrosine-protein kinase erbB-2 (Homo sapiens)
Her2 level / %: 94.5

MOLECULE: Cc1cc(C)n2nc(S(=O)(=O)N(C)Cc3ccccc3)nc2n1
TARGET OR SYSTEM: Receptor tyrosine-protein kinase erbB-2 (Homo sapiens)
Her2 level / %: 91

MOLECULE: Cc1n[nH]c(C)c1S(=O)(=O)N1CCCCCC1
TARGET OR SYSTEM: Receptor tyrosine-protein kinase erbB-2 (Homo sapiens)
Her2 level / %: 80

MOLECULE: CCCCOc1ccc(CC(=O)NO)cc1
TARGET OR SYSTEM: Receptor tyrosine-protein kinase erbB-2 (Homo sapiens)
Her2 level / %: 98.5

MOLECULE: Cc1cccc(OCC(=O)N(Cc2cccs2)C2CCS(=O)(=O)C2)c1C (stereo unspecified)
TARGET OR SYSTEM: Receptor tyrosine-protein kinase erbB-2 (Homo sapiens)
Her2 level / %: 83.5

MOLECULE: COc1cccc(-c2nc(CSCC(=O)N3CCc4ccccc43)c(C)o2)c1
TARGET OR SYSTEM: Receptor tyrosine-protein kinase erbB-2 (Homo sapiens)
Her2 level / %: 162

MOLECULE: c1ccc(-c2ccccc2OCCn2cncn2)cc1
TARGET OR SYSTEM: Receptor tyrosine-protein kinase erbB-2 (Homo sapiens)
Her2 level / %: 79

MOLECULE: CCOC(=O)N1CCN(C(=O)CSc2nnc(-c3cc(OC)cc(OC)c3)o2)CC1
TARGET OR SYSTEM: Receptor tyrosine-protein kinase erbB-2 (Homo sapiens)
Her2 level / %: 75.5

MOLECULE: CCOC(=O)N1CCN(S(=O)(=O)c2cc(C)c(C)cc2C)CC1
TARGET OR SYSTEM: Receptor tyrosine-protein kinase erbB-2 (Homo sapiens)
Her2 level / %: 87

MOLECULE: CC(C)C(NC(=O)c1ccccc1NC(=O)c1ccco1)C(=O)O (stereo unspecified)
TARGET OR SYSTEM: Receptor tyrosine-protein kinase erbB-2 (Homo sapiens)
Her2 level / %: 77.5

MOLECULE: Cc1ccc(S(=O)(=O)N2CCOCC2)cc1C(=O)Nc1ccccn1
TARGET OR SYSTEM: Receptor tyrosine-protein kinase erbB-2 (Homo sapiens)
Her2 level / %: 83

MOLECULE: CCOc1ccccc1-c1nc(-c2ccc(NC(=O)Cc3ccccc3OC)cc2)no1
TARGET OR SYSTEM: Receptor tyrosine-protein kinase erbB-2 (Homo sapiens)
Her2 level / %: 114

MOLECULE: CCCCOCCCNC(=O)c1cccs1
TARGET OR SYSTEM: Receptor tyrosine-protein kinase erbB-2 (Homo sapiens)
Her2 level / %: 102

MOLECULE: CCCCOn1c(C)c(C(=O)OCC)c2c3nonc3ccc21
TARGET OR SYSTEM: Receptor tyrosine-protein kinase erbB-2 (Homo sapiens)
Her2 level / %: 114

MOLECULE: O=S(=O)(NC1CCCC1)c1ccccc1Cl
TARGET OR SYSTEM: Receptor tyrosine-protein kinase erbB-2 (Homo sapiens)
Her2 level / %: 97

MOLECULE: CCOC(=O)c1ccc(NC(=O)CSc2ncccn2)cc1
TARGET OR SYSTEM: Receptor tyrosine-protein kinase erbB-2 (Homo sapiens)
Her2 level / %: 112

MOLECULE: CCN(CC)CCN1C(=O)C(O)=C(C(=O)c2cccs2)C1c1ccccn1 (stereo unspecified)
TARGET OR SYSTEM: Receptor tyrosine-protein kinase erbB-2 (Homo sapiens)
Her2 level / %: 82

MOLECULE: O=C(c1ccccc1)c1ccncc1
TARGET OR SYSTEM: Receptor tyrosine-protein kinase erbB-2 (Homo sapiens)
Her2 level / %: 76.5

MOLECULE: COc1ccc(Br)cc1C(=O)Nc1nnn(C)n1
TARGET OR SYSTEM: Receptor tyrosine-protein kinase erbB-2 (Homo sapiens)
Her2 level / %: 106

MOLECULE: Cn1c(SCc2cccc3ccccc23)nnc1-c1ccco1
TARGET OR SYSTEM: Receptor tyrosine-protein kinase erbB-2 (Homo sapiens)
Her2 level / %: 98.5

MOLECULE: O=C(CCS(=O)(=O)c1cc(Br)cc2c1N(C(=O)C1CC1)CC2)NCC1CCCO1 (stereo unspecified)
TARGET OR SYSTEM: Receptor tyrosine-protein kinase erbB-2 (Homo sapiens)
Her2 level / %: 110

MOLECULE: Cc1ccc(-c2nc3ccccc3[nH]2)s1
TARGET OR SYSTEM: Receptor tyrosine-protein kinase erbB-2 (Homo sapiens)
Her2 level / %: 95.5

MOLECULE: CC(=O)N[C@@H](CS)C(=O)O
TARGET OR SYSTEM: Receptor tyrosine-protein kinase erbB-2 (Homo sapiens)
Her2 level / %: 105

MOLECULE: c1ccc2nc(-c3nc4ccccc4[nH]3)ccc2c1
TARGET OR SYSTEM: Receptor tyrosine-protein kinase erbB-2 (Homo sapiens)
Her2 level / %: 74

MOLECULE: CC(C)CCNC(=O)CCNS(=O)(=O)c1ccc(Cl)cc1
TARGET OR SYSTEM: Receptor tyrosine-protein kinase erbB-2 (Homo sapiens)
Her2 level / %: 95

MOLECULE: C[C@@H]1C[C@H]2[C@@H]3CCC4=CC(=O)C=C[C@]4(C)[C@@]3(F)[C@@H](O)C[C@]2(C)[C@@]1(O)C(=O)COP(=O)(O)O
TARGET OR SYSTEM: Receptor tyrosine-protein kinase erbB-2 (Homo sapiens)
Her2 level / %: 125

MOLECULE: CCN(CC)C(=O)Cn1c(=O)n(Cc2ccccc2Cl)c2c1c(=O)n(C)c(=O)n2C
TARGET OR SYSTEM: Receptor tyrosine-protein kinase erbB-2 (Homo sapiens)
Her2 level / %: 100

MOLECULE: OCCN(CCO)c1nc(N2CCCCC2)c2nc(N(CCO)CCO)nc(N3CCCCC3)c2n1
TARGET OR SYSTEM: Receptor tyrosine-protein kinase erbB-2 (Homo sapiens)
Her2 level / %: 94.5

MOLECULE: COc1ccc(OC)c(NC(=O)CSc2ncccc2C(=O)O)c1
TARGET OR SYSTEM: Receptor tyrosine-protein kinase erbB-2 (Homo sapiens)
Her2 level / %: 98

MOLECULE: c1cncc(-c2nnc3sc(-c4ccco4)nn23)c1
TARGET OR SYSTEM: Receptor tyrosine-protein kinase erbB-2 (Homo sapiens)
Her2 level / %: 106

MOLECULE: O=C1CN(C(=O)COC(=O)c2ccccc2NC(=O)c2ccco2)c2ccccc2N1
TARGET OR SYSTEM: Receptor tyrosine-protein kinase erbB-2 (Homo sapiens)
Her2 level / %: 106

MOLECULE: Cc1cc(C)c(C)c(S(=O)(=O)Nc2ccc(O)cc2)c1C
TARGET OR SYSTEM: Receptor tyrosine-protein kinase erbB-2 (Homo sapiens)
Her2 level / %: 87.5

MOLECULE: CCOC(=O)c1[nH]c(C)c(C(=O)N2CCN(c3ccc(F)cc3)CC2)c1C
TARGET OR SYSTEM: Receptor tyrosine-protein kinase erbB-2 (Homo sapiens)
Her2 level / %: 84

MOLECULE: CC(=O)c1cc(Cl)ccc1OC(=O)c1ccco1
TARGET OR SYSTEM: Receptor tyrosine-protein kinase erbB-2 (Homo sapiens)
Her2 level / %: 92.5

MOLECULE: COc1ccc2cc(C(c3nnnn3C3CCCCC3)N3CCCCCC3)c3nnnn3c2c1 (stereo unspecified)
TARGET OR SYSTEM: Receptor tyrosine-protein kinase erbB-2 (Homo sapiens)
Her2 level / %: 72.5
